B1: NP_116010.1 (parent)
chain: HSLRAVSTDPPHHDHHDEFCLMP

Variants of: B1
protocol: protein stability index of a GFP-peptide fusion (GPS, HEK-293T) (PSI 1-6); higher = more stable;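 also: lentivirally expressed fusion library, cells FACS-sorted into six equal-sized GFP/DsRed ratio bins, PSI computed from sequencing read fractions per bin weighted by bin number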
condition.context: c terminus: native
reported.endpoint: protein stability index
The answer should be a number; do not append a unit.

Query: Sample C20G — what was its protein stability index?
Reply: 2.09

Query: Sample H16D — what was its protein stability index?
Reply: 2.64

Query: Sample A5T — what was its protein stability index?
Reply: 2.38

Query: Sample H13R — what was its protein stability index?
Reply: 2.21

Query: Sample P10C — what was its protein stability index?
Reply: 2.29

Query: Sample D14V — what was its protein stability index?
Reply: 2.27

Query: Sample S7Q — what was its protein stability index?
Reply: 2.58

Query: Sample P23H — what was its protein stability index?
Reply: 3.81

Query: Sample M22V — what was its protein stability index?
Reply: 2.95

Query: Sample L3G — what was its protein stability index?
Reply: 3.07

Query: Sample L21H — what was its protein stability index?
Reply: 2.92

Query: Sample P11N — what was its protein stability index?
Reply: 2.5
